Kindly state activity change, negative = inhibition for each of the entries shown.
PROCEDURE SUMMARY: AP1 Signaling Pathway (AID 357);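 further: ME-180 reporter cells stimulated with EGF at its EC50 level; on the % scale 0 is the no-effect control and ±100 the full control effect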
MEASUREMENT CONDITIONS: ME-180 (cervical carcinoma) AP-1-bla reporter, EGF-induced, beta-lactamase ratio, 5 h; at 7.69 µM (top of the series) unless noted
Inconclusive results are not listed. Calls of active or inactive are those of the source. The call rests on the fitted dose curve; in most records, active means well fitted curve in either direction with a large enough effect (not every such curve was filed as active); inconclusive means small, poorly fitted or top-dose-only effect, or another doubt; inactive means flat fitted curve, though single readings scatter.

Reference set (5 entries):
>>> data_value("Clc1ccc(CSCc2ccc(Cl)cc2Cl)c(Cl)c1")
"-7.04% (inactive)"
>>> data_value("C[C@@H]1C[C@@H]2[C@H]3CCC4=CC(=O)C=C[C@]4(C)[C@]3(Cl)[C@@H](O)C[C@@]2(C)[C@@]1(O)C(=O)CO")
"12.5% [at 38 µM] (inactive)"
>>> data_value("O=C(CSC1=NCCN1)Nc1ccccc1")
"15% (inactive)"
>>> data_value("O=C(O)/C(Cc1cn[nH]n1)=N\\O")
"16.4% (inactive)"
>>> data_value("CN(C)CCC(=O)[C@@]1(O)CC[C@H]2[C@H]3CC=C4C[C@@H](O)CC[C@]4(C)[C@H]3CC[C@]21C")
"3.32% (inactive)"

For each of the compounds below, note its activity change, negative = inhibition.
1. Nc1nc(Cl)nc2c1ncn2[C@@H]1O[C@@H](COP(=O)(O)OP(=O)(O)OP(=O)(O)O)[C@@H](O)[C@H]1O
2. C=C1CC[C@H](O)C/C1=C/C=C1\CCC[C@]2(C)[C@H]1CC[C@H]2[C@@H](C)CCCC(C)C
3. N[C@@H]1[C@@H]2[C@@H]3C[C@H]4N(CC[C@@]14C(=O)C(=O)O)CC3=CCO[C@@H]2CC(=O)O
4. Oc1ccc([C@@H]2CNCc3sccc32)cc1O
5. NC(=O)/N=C(\N)NC(=O)c1ccccc1
6. CC[C@@H](c1ccc2cc(O)ccc2c1)C(C)(C)C(=O)O
7. N[C@@H](CCCCO)C(=O)O

Response:
["18.9% [at 38 µM] (inactive)", "-6.4% [at 17.2 µM] (inactive)", "-3.74% (inactive)", "-15.6% [at 38 µM] (inactive)", "-2.56% (inactive)", "-1.38% (inactive)", "4.11% (inactive)"]

For each of the compounds below, note its activity change, negative = inhibition.
1. C/C(=N/Nc1nc(C)cc(=O)[nH]1)C(=O)O
2. Cc1ccc2ccccc2c1CSc1nc(N)nc2c1ncn2CC(C)C

Response:
1. 1.69% (inactive)
2. -11.7% (inactive)

====

TARGET DESC: 3',5'-cyclic-AMP phosphodiesterase 4B (Homo sapiens) (UniProt Q07343)
Sequence (Q07343 whole entry, looked up): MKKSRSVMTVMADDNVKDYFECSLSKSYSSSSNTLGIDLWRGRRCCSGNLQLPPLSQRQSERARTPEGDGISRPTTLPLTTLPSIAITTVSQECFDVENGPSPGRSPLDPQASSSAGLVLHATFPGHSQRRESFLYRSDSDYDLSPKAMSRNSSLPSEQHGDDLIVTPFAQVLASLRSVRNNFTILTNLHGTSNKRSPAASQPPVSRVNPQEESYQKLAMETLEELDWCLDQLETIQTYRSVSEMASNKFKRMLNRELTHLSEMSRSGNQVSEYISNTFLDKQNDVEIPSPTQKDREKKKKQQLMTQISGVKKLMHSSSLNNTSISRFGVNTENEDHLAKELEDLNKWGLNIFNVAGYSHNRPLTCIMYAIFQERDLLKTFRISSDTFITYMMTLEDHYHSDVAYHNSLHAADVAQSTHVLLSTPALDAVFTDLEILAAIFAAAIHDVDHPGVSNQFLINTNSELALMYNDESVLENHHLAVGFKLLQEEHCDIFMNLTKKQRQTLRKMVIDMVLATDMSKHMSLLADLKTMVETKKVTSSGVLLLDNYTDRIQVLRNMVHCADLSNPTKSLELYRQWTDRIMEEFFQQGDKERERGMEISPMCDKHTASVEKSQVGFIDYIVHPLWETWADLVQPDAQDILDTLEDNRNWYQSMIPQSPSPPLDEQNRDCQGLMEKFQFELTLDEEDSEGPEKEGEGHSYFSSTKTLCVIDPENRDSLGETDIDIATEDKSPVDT
PROCEDURE SUMMARY: qHTS Assay for Inhibitors of PDE-IV (AID 607); further: % of control where 0% means no effect
MEASUREMENT CONDITIONS: HEK293 ACTOne CNG channel cells, membrane potential fluorescence; series mostly up to 22.9 µM
Records with an inconclusive call do not appear. Active and inactive are the calls of the source. Calls come from the whole dose curve; as a rule, active = well fitted activation curve with a large enough effect in the main read-out, with a control signal flat (not every such curve was filed as active); inconclusive = small, poorly fitted or top-dose-only effect, or effect the other way, or a change in a side signal; inactive = flat fitted curve, though single readings scatter.
QUANTITY NAME: outcome

>>> data_value("O=C(c1cc(Br)ccc1O)c1cc(Br)ccc1O")
"inactive"
>>> data_value("NC(N)=N[C@H](CCC(=O)O)C(=O)O")
"inactive"
>>> data_value("Cc1cc2ccc(OC(=O)c3ccc(N=C(N)N)cc3)cc2oc1=O")
"inactive"

====

PROCEDURE SUMMARY: NFAT Signaling Pathway (AID 444);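 further: carbachol stimulus at about its EC50 of 1 µM final; on the % scale 0 is the no-effect control and ±100 the full control effect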
MEASUREMENT CONDITIONS: Jurkat NFAT-bla M1, carbachol, beta-lactamase ratio, 5 h; at 7.69 µM (top of the series) unless noted
Results filed as inconclusive are left out.
QUANTITY NAME: activity change, negative = inhibition (%)
Answers are plain numbers, in %.

Reference set (4 entries):
>>> data_value("NNC(=O)Cc1cccnc1")
7.3
>>> data_value("O=[N+]([O-])c1ccccc1N=Nc1c(O)[nH]c2ccc(S(=O)(=O)O)cc12")
11
>>> data_value("Nc1ccc(S(=O)(=O)NCc2nccs2)cc1")
7.98
>>> data_value("CC(=O)O[C@H]1CC[C@]2(C)C(=CC[C@H]3[C@H]4C[C@H]5O[C@]6(CC[C@H](C)CN6)[C@H](C)[C@@H]5[C@]4(C)CC[C@@H]32)C1")
0.916

// switching to the query molecule
Prompt: Identify activity change, negative = inhibition associated with the molecule COc1ccc(CNc2ncnc3ccc(-c4ccccc4C#N)cc23)c(OC)c1
Response: 8.27
